The values you see were collected from patent US20260132129A1.

Molecular target: PI3Kα H1047R (T47D cells) (Homo sapiens, UniProt P42336, H1047R)
Construct: endogenous in cells; host or cells: T47D cells
Sequence (P42336 whole entry H1047R): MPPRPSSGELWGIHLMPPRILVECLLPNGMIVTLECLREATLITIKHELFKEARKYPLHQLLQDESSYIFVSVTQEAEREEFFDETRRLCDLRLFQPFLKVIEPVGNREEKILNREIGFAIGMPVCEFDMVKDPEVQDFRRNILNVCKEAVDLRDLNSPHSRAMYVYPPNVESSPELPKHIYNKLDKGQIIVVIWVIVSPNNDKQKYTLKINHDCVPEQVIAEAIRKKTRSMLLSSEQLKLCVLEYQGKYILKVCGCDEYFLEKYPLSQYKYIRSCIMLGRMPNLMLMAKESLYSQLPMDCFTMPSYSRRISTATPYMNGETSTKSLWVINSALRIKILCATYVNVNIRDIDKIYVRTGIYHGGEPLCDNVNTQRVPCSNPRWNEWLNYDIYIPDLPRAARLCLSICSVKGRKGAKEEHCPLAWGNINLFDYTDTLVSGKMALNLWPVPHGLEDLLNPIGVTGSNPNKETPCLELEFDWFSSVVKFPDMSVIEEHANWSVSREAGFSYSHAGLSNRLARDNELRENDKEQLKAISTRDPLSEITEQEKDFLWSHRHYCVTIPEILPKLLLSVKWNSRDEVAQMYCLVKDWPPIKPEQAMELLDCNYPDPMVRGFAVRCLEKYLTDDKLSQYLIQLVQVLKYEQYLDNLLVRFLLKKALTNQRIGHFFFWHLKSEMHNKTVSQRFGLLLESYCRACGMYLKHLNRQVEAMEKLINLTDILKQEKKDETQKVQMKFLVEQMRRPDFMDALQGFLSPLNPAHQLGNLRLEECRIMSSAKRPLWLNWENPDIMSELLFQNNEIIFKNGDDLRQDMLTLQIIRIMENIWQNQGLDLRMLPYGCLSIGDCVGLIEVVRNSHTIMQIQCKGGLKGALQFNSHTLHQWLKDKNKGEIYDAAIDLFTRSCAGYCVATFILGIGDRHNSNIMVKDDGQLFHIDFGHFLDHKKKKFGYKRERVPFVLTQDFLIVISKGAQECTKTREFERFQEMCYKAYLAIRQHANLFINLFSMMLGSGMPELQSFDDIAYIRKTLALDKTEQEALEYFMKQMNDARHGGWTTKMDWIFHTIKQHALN
Sequence (P27986 whole entry partner): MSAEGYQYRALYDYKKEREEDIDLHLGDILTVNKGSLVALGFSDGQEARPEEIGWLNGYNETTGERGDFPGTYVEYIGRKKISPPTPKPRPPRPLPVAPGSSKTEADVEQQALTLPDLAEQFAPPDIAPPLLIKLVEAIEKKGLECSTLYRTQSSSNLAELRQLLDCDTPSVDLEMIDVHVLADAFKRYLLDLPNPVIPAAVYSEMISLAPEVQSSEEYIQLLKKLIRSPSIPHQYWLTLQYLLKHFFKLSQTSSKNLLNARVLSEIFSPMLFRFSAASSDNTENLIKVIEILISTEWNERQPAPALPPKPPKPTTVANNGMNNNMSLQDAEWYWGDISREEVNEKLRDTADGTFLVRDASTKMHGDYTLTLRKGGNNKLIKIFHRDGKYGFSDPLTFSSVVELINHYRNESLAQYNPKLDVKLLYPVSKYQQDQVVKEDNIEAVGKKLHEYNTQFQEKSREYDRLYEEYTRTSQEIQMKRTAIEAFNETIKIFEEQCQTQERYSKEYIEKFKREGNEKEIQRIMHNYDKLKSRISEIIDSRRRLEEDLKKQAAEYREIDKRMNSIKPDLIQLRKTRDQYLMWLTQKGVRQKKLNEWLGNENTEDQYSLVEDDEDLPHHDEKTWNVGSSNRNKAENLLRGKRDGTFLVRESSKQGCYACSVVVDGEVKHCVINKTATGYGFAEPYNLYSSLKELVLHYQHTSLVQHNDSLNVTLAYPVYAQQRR
Assay: PI3Kα cellular assay: pAKT HTRF in T47D cells after EGF stimulation
Type: cell-based
Conditions: selectivity T47D (H1047R) over SKBR3 (WT), pAKT HTRF
value type: T47D pAKT S473 HTRF IC50 (H1047R): T47D (H1047R) selectivity over SKBR3 (WT)

Worked examples follow.
Cc1cc([C@@H](C)Nc2ccccc2C(=O)O)c2nc(N3CC(Cl)C3)cc(=O)n2c1 [Compound 364]: A (A denotes >20-fold)
Cc1cc(C(C)Nc2ccccc2C(=O)O)c2nc(-c3cnc4[nH]nc(-c5ccccc5)c4c3)cc(=O)n2c1 (centres unmarked) [Compound 351]: C (C denotes ≤5-fold)
Cc1cc([C@@H](C)Nc2ccccc2-c2cc(O)no2)c2nc(-c3cccc(F)c3)c(C)c(=O)n2c1 [Compound 1368]: C (C denotes ≤5-fold)
Cc1cc([C@@H](C)Oc2ccccc2C2(O)CS(=O)(=O)C2)c2nc(-c3cccc(F)c3)c(C)c(=O)n2c1 [Compound 1392]: C (C denotes ≤5-fold)
Cc1cc([C@@H](C)Nc2ccccc2C)c2nc(N3CCOCC3)cc(=O)n2c1 [Compound 248]: C (C denotes ≤5-fold)
Cc1cc([C@@H](C)Oc2ccc(F)cc2C(=O)O)c2nc(N3CCOCC3)cc(=O)n2c1 [Compound 332]: C (C denotes ≤5-fold)
Cc1cc([C@@H](C)Nc2c(C(=O)O)cnn2C)c2nc(N3CCOCC3)cc(=O)n2c1 [Compound 390]: C (C denotes ≤5-fold)
Cc1cc([C@@H](C)Nc2ccccc2C2(O)COC2)c2nc(-c3cccc(F)c3)c(C)c(=O)n2c1 [Compound 1399]: A (A denotes >20-fold)

QUERY: Observed T47D pAKT S473 HTRF IC50 (H1047R): T47D (H1047R) selectivity over SKBR3 (WT) on PI3Kα H1047R (T47D cells) (Homo sapiens, UniProt P42336, H1047R) for Cc1cc([C@@H](C)Nc2ccccc2S(N)(=O)=O)c2nc(N3Cc4ccccc4C3)cc(=O)n2c1 [Compound 605] , please.
RESULT: A (A denotes >20-fold)

QUERY: Provide value of T47D pAKT S473 HTRF IC50 (H1047R): T47D (H1047R) selectivity over SKBR3 (WT) for this record tested with PI3Kα H1047R (T47D cells) (Homo sapiens, UniProt P42336, H1047R): Cc1cc(C(C)Nc2ccccc2)c2nc(-c3ccc(N4CC(C)(C)C4)c(C#N)c3)cc(=O)n2c1 (centres unmarked) [Compound 280]
RESULT: C (C denotes ≤5-fold)

----------
Items are presented alongside their recorded IC50.
Molecular target: PI3Kα H1047R (T47D cells) (Homo sapiens, UniProt P42336, H1047R)
Construct: endogenous in cells; host or cells: T47D cells
Assay: PI3Kα cellular assay: pAKT HTRF in T47D cells after EGF stimulation
Format: cell-based
Details: T47D cells (PI3Kα H1047R), pAKT S473 HTRF, EGF stimulation

Cc1cc(C(C)Nc2ccc(F)cc2C(=O)O)c2nc(-c3cccc(F)c3)c(C)c(=O)n2c1 (stereo not shown): < 0.1 µM
Cc1cc(C(C)Nc2ccccc2C(=O)O)c2nc(-c3cc(F)cc(C#N)c3)c(C)c(=O)n2c1 (stereo not shown): < 0.1 µM
Cc1cc([C@@H](C)N[C@H](C(=O)O)c2ccccc2)c2nc(N3CCOCC3)cc(=O)n2c1: > 2 µM

Consider the record given below.
QUERY: Name the reported IC50 value associated with the molecule `Cc1cc([C@@H](C)Nc2ccccc2C(=O)O)c2nc(-c3ccc4c(c3)c(C3CC3)nn4C)cc(=O)n2c1`
RESULT: < 0.1 µM
